target: T1, mouse TEAD4(210-427) (mouse, UniProt Q62296 210-427); assay: SPR; GST-hTEAD1 or mTEAD4 amine-coupled to a CM5 chip (10 mM MES pH 6.4), peptides as analytes; 10 mM HEPES, 150 mM NaCl, 0.05% Tween-20, pH 7.4, 20 °C, 30 µL/min; steady-state fit, 1:1 model; conditions: both partners purified
T1 construct: mouse TEAD4, residues 210-427; The tag was cleaved with 3C protease only for the crystallisation; nothing is said for SPR and FP; also called mTEAD4; source: E. coli BL21 DE3 RIL, purified (His Trap, SEC)
T1 sequence (Q62296 210-427): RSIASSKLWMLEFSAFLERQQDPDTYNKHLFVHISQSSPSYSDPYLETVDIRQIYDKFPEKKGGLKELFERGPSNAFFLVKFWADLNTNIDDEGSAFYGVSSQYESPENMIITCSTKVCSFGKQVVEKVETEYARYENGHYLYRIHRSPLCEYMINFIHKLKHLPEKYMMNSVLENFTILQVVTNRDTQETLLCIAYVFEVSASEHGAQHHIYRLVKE
MEASURE_NAME: pKd
Numbers only, as −log10 of the molar value.

[in] Recorded pKd of YAP(50-100) (peptide, UniProt P46937 50-100, looked up, yes-associated protein YAP, residues 50-100) peptide: AGHQIVHVRGDSETDLEALFNAVMNPKTANVPQTVPMRLRKLPDSFFKPPE , please.
[out] 6.15

Each recorded value in this set is attributed to paper PMC7591920.
